Test system: SW-620 colon
Test: NCI-60 one-dose screen, 48 h
Conditions: 10 µM unless noted
This is part of a sample that, as a whole, favours compounds with a hit. Of some 83,000 tested, about 20% had one in any assay. The source made the active and inactive calls. The calls were made as follows: active = growth percent below 10; inactive = the rest.
Would you mind answering with one of these outcomes? active, inactive

Worked set:
1. COc1ncc(-c2ccc3ncnc(Nc4cccc(Cl)c4)c3c2)cc1NS(C)(=O)=O | inactive
2. CN1CCN(Cc2ccc(NC(=O)c3[nH]ncc3Nc3ncnc4[nH]ccc34)cc2)CC1 | active
3. C=C1CCC2C3(C)COC(c4cccc(Cl)c4)OC3CCC2(C)C1/C=C/C1=CCOC1=O (stereo not drawn) | inactive
4. COc1c2ccccc2c(OC)c2[nH]c(=O)ccc12 | inactive
5. COC(=O)[C@H](C(C)C)n1c(=O)c2cc(OC)c(OC)cc2c2cnc3[nH]ccc3c21 | inactive
6. O=C(O)c1cccc2c1-c1ccccc1C2=O | inactive
7. COc1ccc2nc3cc(Cl)ccc3c(NCCNCC(O)CO)c2c1 (stereo not drawn) | inactive
8. CCN(CC)c1ccc(CNc2cc(C)nc3ccc(OC)cc23)cc1 | active

Data request: Recorded call for CC(=O)Oc1cc2cnc3c4cc(OC(C)=O)c(OC(C)=O)cc4ccc3c2cc1OC(C)=O ?
Data returned: inactive

Data request: Recorded call for CC(=O)Oc1ccc(Nc2c3ccccc3nc3ccccc23)cc1 ?
Data returned: active

Data request: Recorded call for CC1=C(NCCN2CCCC2)C(=O)c2c(OCc3ccc(C(F)(F)F)cc3)cccc2C1=O ?
Data returned: inactive

Data request: Recorded call for CC/C(Cc1ccccc1)=C(\c1ccc(OCCN2CCCC2)cc1)c1ccc(OC(C)=O)cc1 ?
Data returned: inactive

Data request: Recorded call for O=S(=O)(Nc1ccc(Cl)cc1Cl)c1ccc(-c2cnc(C3CC3)o2)cc1 ?
Data returned: inactive

Data request: Recorded call for Fc1ccc(Cc2ccc(F)cc2)cc1 ?
Data returned: inactive

Data request: Recorded call for Cc1cccc(NC(=O)c2sc3nc4c(cc3c2N)C(=O)CCC4)c1 ?
Data returned: inactive

Data request: Recorded call for CN1CCOCCOCCOc2ccccc2NC(=O)c2nc(cnc2N)-c2ccc(cc2)S1(=O)=O ?
Data returned: inactive

Data request: Recorded call for Cn1c2ccccc2c2c3c(c4c5ccccc5[nH]c4c21)C(=O)N(N)C3=O ?
Data returned: inactive

Data request: Recorded call for CCCCCCCCCC(=O)Oc1ccc(/C(=C(/C)c2ccccc2)c2ccc(OCCN3CCCC3)cc2)cc1 ?
Data returned: active

Data request: Recorded call for CCOC(=O)CC(=O)c1c(C)cc(C)cc1C ?
Data returned: inactive

Data request: Recorded call for Nc1cc2nc3ccccc3sc-2cc1=O ?
Data returned: inactive

Data request: Recorded call for COc1cc(OC)c(/C=C/C(=O)c2c(OC)cc(OC)cc2OC)c(OC)c1 ?
Data returned: active

Data request: Recorded call for Cc1ccc2c(c1)n([O-])c1cc(Cl)ccc1[n+]2=O ?
Data returned: inactive

Data request: Recorded call for CSc1nc(NCCCNc2ccnc3cc(Cl)ccc23)cc(-c2ccccc2)n1 ?
Data returned: inactive

Data request: Recorded call for CNCCCn1c2c(c3ccc([N+](=O)[O-])cc3c1=O)C(=O)c1cc(OC)cnc1-2 ?
Data returned: active

Data request: Recorded call for CCN(CC)CC(C)Nc1ccc([N+](=O)[O-])c2sc3ccccc3c(=O)c12 (stereo not drawn) ?
Data returned: inactive

Data request: Recorded call for C[C@@H]1CC[C@@H]2[C@@H]1[C@H](OC(=O)/C=C/c1ccccc1)[C@]1(C3CCCCC3)C[C@@H](OC(=O)CO)[C@@]2(C)O1 ?
Data returned: inactive

====

Test system: RXF 393 renal
Assay: NCI-60 one-dose screen, 48 h (100 = growth as untreated, 0 = no growth, -100 = all killed)
Conditions: 10 µM unless noted
About 83,000 compounds went through this panel and 20% of them were active in at least one assay; those are over-represented in the sample as a whole.
Output Y for records whose growth is lower than 90%, N for records at or above 90%.

Worked set:
1. CNCCCn1c2c(c3ccc([N+](=O)[O-])cc3c1=O)C(=O)c1cc(OC)cnc1-2 | Y
2. C/C(Cc1ccc(Cl)cc1)=C(\c1ccc(OCCN2CCCCCC2)cc1)c1ccc(OC(=O)C2CCCCC2)cc1 | Y
3. COc1ccc(N(Cc2cc(OC)c(OC)c(OC)c2)C2OC(=O)c3ccccc32)cc1 (configuration not stated) | Y
4. O=C(O)c1c([N+](=O)[O-])cnc2ccccc12 | N
5. NS(=O)(=O)N(c1cc(C(F)(F)F)cc(C(F)(F)F)c1)C1CCN(Cc2ccc(F)cc2)CC1 | Y
6. CN(C)c1ccc(/C=C(\C#N)c2nc3ccccc3s2)cc1 | N

Data request: is_below(growth, 90%) for CCN(CC)C12CCCCC1(C)C(C#N)(C#N)C(C#N)=C(N)O2 (configuration not stated) ?
Data returned: N

Data request: is_below(growth, 90%) for C=C1CCC2C3(C)COC(c4ccccc4Br)OC3CCC2(C)C1C/C=C1/C(=O)OCC1OC(C)=O (configuration not stated) ?
Data returned: Y

Data request: is_below(growth, 90%) for C=C1CC2(OC1=O)C(=O)Nc1ccccc12 (configuration not stated) ?
Data returned: Y

Data request: is_below(growth, 90%) for CC1(C)CC(C(=O)OCCCCCCCCCCC[P+](c2ccccc2)(c2ccccc2)c2ccccc2)C(C)(C)N1O (configuration not stated) ?
Data returned: Y

Data request: is_below(growth, 90%) for O=C(Cn1cc(CN2C(=O)c3ccccc3S2(=O)=O)nn1)Nc1ccc([N+](=O)[O-])cc1Cl ?
Data returned: N

Data request: is_below(growth, 90%) for COc1cccc(/C=C\C(=O)c2ccccc2)c1 ?
Data returned: Y

====

Listed here: items and their measured growth.
System: NCI-H23 lung
Experiment: NCI-60 one-dose screen, 48 h (100 = growth as untreated, 0 = no growth, -100 = all killed)
Conditions: 10 µM unless noted
Compounds without any hit were thinned out: in the full panel of roughly 83,000, 20% have a hit.
Provide only the numeric value, understood in %.

The cases that follow already have their growth on record.
1. COc1cc(C2CC(=O)Nc3c2cnn3Cc2ccco2)cc2c1OCCO2 (stereo not given) | 96.6
2. COc1ccc(-c2csc(NC(=O)CN3CCN(c4cc5c(cc4F)c(=O)c(C(=O)O)cn5C4CC4)CC3)n2)cc1 | 9.73
3. N#Cc1c(N)nc(N)nc1Nc1ccc(Br)cc1 | 102
4. Cc1ccc(NC(=O)c2sc3nc4c(cc3c2N)C(=O)CCC4)cc1C | 32.7

As a next step, examine the compound that follows.
Data request: Query the reported growth for NCI-H23 lung; item: O=c1c2c3c(sc2n2c(CCl)nnc2n1Cc1ccccc1)CCCC3
Data returned: -42.1

====

Test system: NCI-H226 lung
Assay: NCI-60 one-dose screen, 48 h (100 = growth as untreated, 0 = no growth, -100 = all killed)
Details: 10 µM unless noted
The panel holds about 83,000 compounds, 20% with a hit somewhere; the sample as a whole holds those more often.
# binarize growth: threshold 70% inclusive, high side true (1), low side false (0)

1) CCCCCCCCCCCCCCCCNCCC[C@@H](C)[C@H]1CC[C@H]2[C@@H]3[C@H](OCCCN)C[C@@H]4C[C@H](OCCCN)CC[C@]4(C)[C@H]3C[C@H](OCCCN)[C@]12C | false (0)
2) O=C(CCCCN1CCOCC1)Nc1ccc(Cn2nnc3c2C(=O)c2nnn(Cc4ccc(NC(=O)CCCCN5CCOCC5)cc4)c2C3=O)cc1 | false (0)
3) COCCCNc1nc(NC(=O)c2ccc(F)cc2C)cc(-c2cccnc2)n1 | true (1)
4) Cc1ccc(S(=O)(=O)n2cc(-c3csc(-c4cn(C)c5ncccc45)n3)c3ccccc32)cc1 | true (1)

Data request: growth >= 70% for OC(c1cccc(C(F)(F)F)c1)c1cnccc1NC1CCCCCC1 (stereo not drawn) ?
Data returned: false (0)

Data request: growth >= 70% for C/C(=C(/c1ccc(O)cc1)c1ccc(Cl)cc1)c1ccccc1 ?
Data returned: false (0)

Data request: growth >= 70% for COc1ccc(C(=O)/C=C/c2c[n+](=O)c3ccc(F)cc3n2[O-])cc1 ?
Data returned: true (1)

Data request: growth >= 70% for CCN1CCN(Cc2ccc(NC(=O)Nc3nc4ccc(Oc5ccnc(C(=O)NC)c5)cc4s3)cc2C(F)(F)F)CC1 ?
Data returned: false (0)

Data request: growth >= 70% for COc1cccc(-c2nc3sccn3c2-c2ccnc(NCCCNS(=O)(=O)c3ccc(Cl)cc3)c2)c1 ?
Data returned: false (0)

Data request: growth >= 70% for O=[N+]([O-])c1cccc(-c2nc3sccn3c2-c2ccnc(NCCNS(=O)(=O)c3ccc(C(F)(F)F)cc3)n2)c1 ?
Data returned: false (0)

Data request: growth >= 70% for Cc1ccc(C2CC3c4ccccc4C2C2CCCCN32)cc1 (stereo not drawn) ?
Data returned: true (1)

Data request: growth >= 70% for CSc1nc(NCCO)c(C#N)c(-c2cccc(N)c2)n1 ?
Data returned: true (1)

Data request: growth >= 70% for Cl/C(=N\Nc1ccccc1)c1ccccc1 ?
Data returned: true (1)

Data request: growth >= 70% for C=C1C(=O)O[C@H]2[C@H]1CC/C(Cn1cc(Cc3c[nH]c4ccccc34)nn1)=C\CC[C@@]1(C)O[C@@H]21 ?
Data returned: true (1)

Data request: growth >= 70% for Cc1nn(-c2ccccc2)c2nc(C)n(-c3ccc(Br)cc3)c(=O)c12 ?
Data returned: false (0)

Data request: growth >= 70% for Nc1c(C(=O)Nc2cccc3c2OCCO3)sc2nc3c(cc12)C(=O)CCC3 ?
Data returned: false (0)

Data request: growth >= 70% for Clc1cccc(Nc2nc(Nc3cnc4ccccc4c3)c3[nH]cnc3n2)c1 ?
Data returned: true (1)

Data request: growth >= 70% for CCN(CC)CCCC(C)Nc1ccnc2c(OC)cccc12 (stereo not drawn) ?
Data returned: true (1)
